assay: Tegavivint solubility in water and organic solvents; format: physicochemical; settings: water, aqueous buffer; across the pH range of 2 to 10; read-out: solubility in water
metric: solubility

I'd like to know its solubility. The molecule in question is C[C@@H]1C[C@H](C)CN(S(=O)(=O)c2ccc3c(c2)C(=NO)c2cc(S(=O)(=O)N4C[C@H](C)C[C@H](C)C4)ccc2C3=NO)C1 [BC2059, tegavivint]
< 0.25 µg/mL

====

experiment: Dose-escalating intravenous infusion study in male Beagle dogs (plasma PK); format: in vivo; conditions: male, Beagle, plasma; dog, 15 mg/kg IV over 4 h, mean, n = 4 males; read-out: T½ (converted)
metric: half-life (h)
Could you give me the number in h? Just the number is fine.

I'd like to know its half-life. The compound in question is C[C@@H]1C[C@H](C)CN(S(=O)(=O)c2ccc3c(c2)C(=NO)c2cc(S(=O)(=O)N4C[C@H](C)C[C@H](C)C4)ccc2C3=NO)C1
53

====

test: Aerosol particle size distribution by cascade impactor; type: physicochemical; conditions: Covaris and Ball Mill (60 min); 0.1% Tween 80; 15.06 mg/mL; Hospitak
metric: MMAD (µm)
Could you give me the number in µm? Just the number is fine.

I'd like to know its MMAD. The compound in question is C[C@@H]1C[C@H](C)CN(S(=O)(=O)c2ccc3c(c2)C(=NO)c2cc(S(=O)(=O)N4C[C@H](C)C[C@H](C)C4)ccc2C3=NO)C1 [BC2059, tegavivint]
1.26

====

experiment: Dose-escalating intravenous infusion study in male Beagle dogs (plasma PK); type: in vivo; settings: male, Beagle, dog, plasma, iv, 15 mg/kg, 15 mg/kg 4 h IV infusion, individual animals, read-out: Plasma BC-2059, 96 h
metric: concentration at 96 h

I'd like to know its concentration at 96 h. The compound in question is C[C@@H]1C[C@H](C)CN(S(=O)(=O)c2ccc3c(c2)C(=NO)c2cc(S(=O)(=O)N4C[C@H](C)C[C@H](C)C4)ccc2C3=NO)C1
277 ng/mL

====

assay: Dose-escalating intravenous infusion study in male Beagle dogs (plasma PK); type: in vivo; settings: male, Beagle, dog, plasma, iv, 15 mg/kg, 15 mg/kg 4 h IV infusion, individual animals, read-out: Plasma BC-2059, 72 h
metric: concentration at 72 h
# output: number + unit

I'd like to know its concentration at 72 h. The compound in question is C[C@@H]1C[C@H](C)CN(S(=O)(=O)c2ccc3c(c2)C(=NO)c2cc(S(=O)(=O)N4C[C@H](C)C[C@H](C)C4)ccc2C3=NO)C1
393 ng/mL

====

assay: Pharmacokinetics after slow intravenous bolus in female Sprague-Dawley rats; type: in vivo; conditions: female, Sprague-Dawley, rat, plasma, iv, 10 mg/kg, 10 mg/kg slow intravenous bolus, regression points 0.5, 1 and 2 h, read-out: T1/2 Alpha (converted)
metric: half-life (min)
Could you give me the number in min? Just the number is fine.

I'd like to know its half-life. The compound in question is C[C@@H]1C[C@H](C)CN(S(=O)(=O)c2ccc3c(c2)C(=NO)c2cc(S(=O)(=O)N4C[C@H](C)C[C@H](C)C4)ccc2C3=NO)C1 [BC2059, tegavivint]
32.8

====

assay: Tegavivint solubility in water and organic solvents; format: physicochemical; conditions: ethanol, organic solvent or mixture; read-out: solubility in ethanol
metric: solubility (µg/mL)
Could you give me the number in µg/mL? Just the number is fine.

I'd like to know its solubility. The compound in question is C[C@@H]1C[C@H](C)CN(S(=O)(=O)c2ccc3c(c2)C(=NO)c2cc(S(=O)(=O)N4C[C@H](C)C[C@H](C)C4)ccc2C3=NO)C1 [BC2059, tegavivint]
260
